- System: human lung cancer strain NCI-H441
- Type: cell-based
Where a SMILES comes first, the peptide text is derived from it. Bridges are numbered along the chain shown (N, C = ends). [ ]: non-standard residue; d: D form. hPhe(3-Cl-4-CF3) = N[C@@H](CCc1ccc(C(F)(F)F)c(Cl)c1)C(=O)O; NPrPhe(4-CF3) = CCCN[C@@H](Cc1ccc(C(F)(F)F)cc1)C(=O)O; NMeGly(cPent) = CN[C@H](C(=O)O)C1CCCC1; Hyp = O=C(O)[C@@H]1C[C@@H](O)CN1; NMeD = CN[C@@H](CC(=O)O)C(=O)O; NMeL = CN[C@@H](CC(C)C)C(=O)O; NMeA = CN[C@@H](C)C(=O)O; Ac5c = NC1(C(=O)O)CCCC1; Aze = O=C(O)[C@@H]1CCN1; Ac4c = NC1(C(=O)O)CCC1; Sar = CNCC(=O)O
reported_endpoint: pIC50
Answer as the number alone; pIC50 is minus log10 of concentration in mol/L.

So what's the measured pIC50 for this one? CCCN1C(=O)CN(C)C(=O)[C@@H]2CCN2C(=O)[C@H]([C@@H](C)CC)NC(=O)[C@H](CC(C)C)N(C)C(=O)C[C@@H](C(=O)N(C)C)NC(=O)[C@H](C2CCCC2)N(C)C(=O)C2(CCC2)NC(=O)[C@@H]2C[C@@H](OCC)CN2C(=O)[C@H](CCc2ccc(C(F)(F)F)c(Cl)c2)NC(=O)CN(C)C(=O)[C@@H]1Cc1ccc(C(F)(F)F)cc1 [PP0378] ([NMeL]I[Aze][Sar][NPrPhe(4-CF3)][Sar][hPhe(3-Cl-4-CF3)][Hyp](Et)[Ac4c][NMeGly(cPent)]D-NMe2; lactam N-11)
6.96

Please answer likewise for CCCN1C(=O)[C@@H]2CCN2C(=O)[C@H](C)N(C)C(=O)[C@H]([C@@H](C)CC)NC(=O)[C@H](CC(C)C)N(C)C(=O)C[C@@H](C(=O)N(C)C)N(C)C(=O)[C@H](C2CCCC2)N(C)C(=O)C2(CCCC2)NC(=O)[C@@H]2CCCN2C(=O)[C@H](CCc2ccc(C(F)(F)F)c(Cl)c2)NC(=O)CN(C)C(=O)[C@@H]1Cc1ccc(C(F)(F)F)cc1 [PP0178] ([NMeL]I[NMeA][Aze][NPrPhe(4-CF3)][Sar][hPhe(3-Cl-4-CF3)]P[Ac5c][NMeGly(cPent)][NMeD]-NMe2; lactam N-11)
8.82

Please answer likewise for `CCO[C@@H]1C[C@H]2C(=O)NC3(CCC3)C(=O)N(C)[C@@H](C3CCCC3)C(=O)N(C)[C@H](C(=O)N(C)CC)CC(=O)N(C)[C@@H](C)C(=O)N[C@@H]([C@@H](C)CC)C(=O)N(C)CC(=O)N(C)[C@H]3C/C=C\CCN(C3=O)[C@@H](Cc3ccc(C(F)(F)F)cc3)C(=O)N(C)CC(=O)N[C@@H](CCc3cc(F)c(C(F)(F)F)c(F)c3)C(=O)N2C1`
8.04

# credit: patent EP4603105A1
